Test system: BT-549 breast
Assay: NCI tumour cell line growth inhibition, 48 h
Criterion: TGI meeting or surpassing 30 µM. Met: rule met. Not met: rule not met.

{"molecule": "CN(C(=O)c1ccncc1)c1ccccc1", "label": "rule met"}
{"molecule": "NC(CCCCNC(=O)CNC(=O)OCc1ccccc1)C(=O)NC(CCCCNC(=O)CNC(=O)OCc1ccccc1)C(=O)NC(CCCCNC(=O)CNC(=O)OCc1ccccc1)C(=O)NC(CCCCNC(=O)CNC(=O)OCc1ccccc1)C(=O)NC(CCCCNC(=O)CNC(=O)OCc1ccccc1)C(=O)NC(CCCCNC(=O)CNC(=O)OCc1ccccc1)C(=O)O (stereo not drawn)", "label": "rule met"}
{"molecule": "CN(C)CCn1c(=O)c2ccc3c4c(nn3CCN(C)C)c3cc(O)ccc3n(c1=O)c24", "label": "rule not met"}
{"molecule": "O=C(CN1CCN(c2ccccc2)CC1)N1CCN(c2nnc(-c3ccc(Cl)cc3)c(-c3ccc(Cl)cc3)n2)CC1", "label": "rule met"}
{"molecule": "O=S(=O)(O)c1ccc2c(N=Nc3ccc(F)cc3)c(O)c(S(=O)(=O)O)cc2c1", "label": "rule met"}
{"molecule": "C=C1CCC2C3(C)COC(c4ccccc4Br)OC3CCC2(C)C1C/C=C1/C(=O)OCC1OC(C)=O (stereo not drawn)", "label": "rule not met"}
{"molecule": "CCOC(=O)c1nc(Nc2ccc(Cl)cc2)c2ccccc2n1", "label": "rule not met"}
{"molecule": "COCCNc1cc(NC(=O)N2CCCc3cc(CN4CCN(C)CC4=O)c(C=O)nc32)ncc1C#N", "label": "rule met"}
{"molecule": "COc1cccc(C2SCC(=O)N2c2ccc(-n3c(-c4ccccc4)nc4ccccc4c3=O)cc2)c1OC (stereo not drawn)", "label": "rule met"}
{"molecule": "COC1=CC(=O)c2c(O)c3c(c(O)c2C1=O)C=C(C)OC3O (stereo not drawn)", "label": "rule not met"}
{"molecule": "Cn1c(=O)c2c(ncn2CCCCOc2ccc3c(c2)[n+]([O-])nc(N)[n+]3[O-])n(C)c1=O", "label": "rule met"}
{"molecule": "O=C(OCCBr)c1ccc(Cl)c([N+](=O)[O-])c1", "label": "rule met"}
{"molecule": "COc1cc2c3c(n(C)c(=O)c2cc1OC)-c1cc2c(cc1/C3=C\\C(N)CN)OCO2 (stereo not drawn)", "label": "rule not met"}
{"molecule": "CCOc1ncn(-c2ccc(NC(=S)NC34CC5CC(CC(C5)C3)C4)cc2)n1", "label": "rule met"}
{"molecule": "COC(=O)C1=C(OC(=O)c2ccc(Cl)cc2)C(C(=O)OC)[C@@]2(O)[C@@H](C(=O)OC)C(c3ccccc3Cl)C[C@@H]1[C@@H]2C(=O)OC (stereo partly drawn)", "label": "rule met"}
{"molecule": "COc1ccc2c(c1)C(C)Cc1c(Cl)nc(C)nc1N2C (stereo not drawn)", "label": "rule not met"}
{"molecule": "CC(C)/C(Cl)=N\\OC(=O)Nc1ccc(F)cc1F", "label": "rule not met"}
{"molecule": "CSc1ccccc1C#Cc1ccccc1C#CCCCCO", "label": "rule not met"}
{"molecule": "O=C1CC(C(=O)N2CCCCC2)n2c(=O)n(-c3ccccc3)c(=O)n2C1 (stereo not drawn)", "label": "rule met"}
{"molecule": "Cc1ccc(Nc2nc(NS(=O)(=O)c3cc(C(=O)Nc4ccc(Cl)cc4)c(Cl)cc3S)n[nH]2)cc1", "label": "rule met"}
{"molecule": "c1ccc(C2OCC(OC3CCCCO3)CO2)cc1 (stereo not drawn)", "label": "rule met"}
{"molecule": "COc1cc(/C=C2\\C(=O)N(Cc3ccccc3)C(c3ccccc3)S2(=O)=O)cc(OC)c1OC (stereo not drawn)", "label": "rule met"}
{"molecule": "O=C(O)CC1OCC=C2CN3CCC45C6=CC(=O)C(=O)C([N+](=O)[O-])=C6NC4C1C2CC35 (stereo not drawn)", "label": "rule met"}
{"molecule": "COc1ccc(C(=O)N(C(=S)OCCOc2ccccc2)c2ccccc2)cc1", "label": "rule met"}
{"molecule": "COc1cc(C2CC(c3ccc(N(C)C)cc3)=NN2C(C)=O)cc(OC)c1OC (stereo not drawn)", "label": "rule met"}
{"molecule": "COC(=O)[C@@]12C(=O)C(C)C(=O)[C@]1(C)C(C)=C[C@H]1[C@]3(C=O)CC[C@H](OC(C)=O)C(C)(C)[C@H]3CC[C@@]12C (stereo partly drawn)", "label": "rule met"}
{"molecule": "O=C(CCCN1CCC2(CC1)CC(=O)N(N1CCCCCC1)C2=O)c1ccc(F)cc1", "label": "rule met"}
